# System: NCI-H460 lung
# assay_protocol: NCI tumour cell line growth inhibition, 48 h
Entries and their TGI
value_type: TGI

* N#Cc1ccc(N2CCOCC2)cc1 | > 100 µM
* CCNC(=O)Nc1ccc(Oc2ccnc3ccc4c(ccn4C)c23)cc1 | > 100 µM
* COc1cc(/C(=C2/O[C@@H]([C@H]3COC(C)(C)O3)[C@H]3OC(C)(C)O[C@@H]23)c2ccc3ccccc3c2)cc(OC)c1OC | > 100 µM
* COc1cc2c(cc1OC)CC(=O)Nc1cc(OC)c(OC)cc1CC2 | > 100 µM
* CCCc1cc(=O)n2c(C(=O)Nc3cccc(C(=O)OCC)c3)c(C(=O)Nc3ccc(F)cc3)sc2n1 | > 140 µM
* O=C(O)c1nc2ccc(C(F)(F)F)cc2nc1NCc1ccc(Cl)c(Cl)c1 | 30.8 µM
* CCCCNC(=O)C1C(=O)N(CCCC)C(=O)/C1=N\N (stereo not drawn) | > 100 µM
* Clc1ccc(C(Cc2cccc(Cl)c2)c2c(Cl)nc(N3CCNCC3)nc2Cl)cc1 (stereo not drawn) | 30.9 µM
* NC(=O)c1cccc(N=c2oc3ccc(Br)cc3cc2-c2nc3ccccc3[nH]2)c1 | 43.6 µM
* Cc1nc(-c2nc(-c3ccc(OC(F)(F)F)cc3)no2)nn1Cc1cccc(N2CCC(S(C)(=O)=O)CC2)c1 | > 100 µM
* Cc1occc1C(=S)Nc1ccc(Cl)c(/C=N/OC(C)(C)C)c1 | 29.7 µM
* COc1cc2c(cc1Cc1cccc(Cl)c1F)c(=O)c(C(=O)O)cn2[C@@H](CO)C(C)C | 10.6 µM
* CC[C@@H](C(=O)[C@H](C)[C@H](O)[C@@H](C)[C@H]1O[C@H]([C@@H](CC)C(=O)N(CC)CC)CC[C@H]1C)C1O[C@]2(C=C[C@@H](O)[C@]3(CC[C@@](C)([C@H]4CC[C@](O)(CC)[C@H](C)O4)O3)O2)[C@H](C)C[C@@H]1C (stereo partly drawn) | 7.3 µM
* CCOC(=O)Cc1csc(Nc2ccc(OCC)cc2)n1 | > 100 µM
* CC(=O)OCC1OC(n2c3c(cc(C#N)c2=S)CCC3)C(OC(C)=O)C(OC(C)=O)C1OC(C)=O (stereo not drawn) | > 100 µM
* O=C1NC(=O)C(C(=O)C(=O)Nc2ccc(Cl)cc2Cl)C(=O)N1 | > 100 µM
* CC(N)(/C=C/c1ccccc1)C(=O)O (stereo not drawn) | > 100 µM
* Cn1cc(C2=C(c3c4n(c5ccccc35)CCC(CN)C4)C(=O)NC2=O)c2ccccc21 (stereo not drawn) | 7.05 µM

Hey, just so you know, these numbers are from PubChem BioAssay (NCI).
